System: breast cancer MCF-7 cell line
Assay: In vitro anti-proliferative activity, MTT assay
Format: cell-based, human
Details: Homo sapiens, MCF7, 48 h, MCF-7, MTT, 48 h of incubation; read-out: IC50 48 h
Doc: threshold 2 µM (exclusive). Items with IC50 beneath it return 1; others return 0.

// below: answered compounds
COc1cccc2c1C(=O)c1c(O)c3c(c(O)c1C2=O)C[C@@](O)(C(=O)CO)C[C@@H]3O[C@H]1C[C@H](N)[C@H](O)[C@H](C)O1 [Dox., Doxorubicin, reference compound]
1
COc1ccc(-c2ccc(NC(=O)Nc3ccc(Cl)c(C(F)(F)F)c3)c(C)n2)cc1
1
COc1ccc(-c2ccc(NC(=O)Nc3cccc(C(F)(F)F)c3)c(C)n2)cc1OC
0
COc1ccc(-c2ccc(NC(=O)Nc3ccc(Cl)cc3)c(C)n2)cc1
0
COc1ccc(NC(=O)Nc2ccc(-c3ccc(OC)cc3)nc2C)cc1
0
COc1ccc(-c2ccc(NC(=O)Nc3cccc(OC)c3)c(C)n2)cc1
0
COc1ccc(-c2ccc(NC(=O)Nc3cccc(C(F)(F)F)c3)c(C)n2)cc1
0
COc1ccc(-c2ccc(NC(=O)Nc3ccccc3)c(C)n2)cc1OC
0

Is IC50 of COc1ccc(NC(=O)Nc2ccc(-c3ccc(OC)c(OC)c3)nc2C)cc1 strictly below 2 µM?
1

Is IC50 of CNC(=O)c1cc(Oc2ccc(NC(=O)Nc3ccc(Cl)c(C(F)(F)F)c3)cc2)ccn1 [Sorafenib, reference compound] strictly below 2 µM?
0

====

Tested on: SK-MEL-2
Assay: NCI one-dose SRB assay (Melanoma)
Assay type: cell-based, human
Conditions: Homo sapiens; SK-MEL-2, 10 μM; read-out: Percentage growth inhibition (GI%)
Listed here are molecules together with their documented inhibition at 10 µM.
Enter your answer as a number in %; do not include the unit.

COc1ccc(-c2ccc(NC(=O)Nc3cccc(C(F)(F)F)c3)c(C)n2)cc1 [Compound 8b]
25

With those in mind, consider the next molecule.
Look up inhibition at 10 µM for this molecule: COc1ccc(-c2ccc(NC(=O)Nc3cccc(C(F)(F)F)c3)c(C)n2)cc1OC [Compound 8i]
27

====

Tested on: OVCAR-8
Assay: NCI one-dose SRB assay (Ovarian Cancer)
Format: cell-based, human
Details: Homo sapiens; OVCAR-8, 10 μM; read-out: Percentage growth inhibition (GI%)
Description: The structures of all the newly prepared pyridine-ureas 8a–n were submitted to the National Cancer Institute (NCI) Developmental Therapeutic Program. Eight compounds 8b, 8d, 8e, 8i, 8j and 8l–n were selected to be examined for their in vitro growth inhibitory activity. The anticancer assays were carried out according to the protocol of the Drug Evaluation Branch, NCI, Bethesda. […]
# if value of inhibition at 10 µM reaches 20%, tag True; if it stays below, tag False

COc1ccc(NC(=O)Nc2ccc(-c3ccc(OC)c(OC)c3)nc2C)cc1
True

Evaluate COc1ccc(-c2ccc(NC(=O)Nc3cccc(Cl)c3)c(C)n2)cc1OC : inhibition at 10 µM at minimum 20%?
False

Evaluate COc1ccc(-c2ccc(NC(=O)Nc3ccc(Cl)c(C(F)(F)F)c3)c(C)n2)cc1 : inhibition at 10 µM at minimum 20%?
True

Evaluate COc1ccc(-c2ccc(NC(=O)Nc3cccc(C(F)(F)F)c3)c(C)n2)cc1 : inhibition at 10 µM at minimum 20%?
True

Evaluate COc1ccc(-c2ccc(NC(=O)Nc3cccc(C(F)(F)F)c3)c(C)n2)cc1OC : inhibition at 10 µM at minimum 20%?
False

Evaluate COc1ccc(-c2ccc(NC(=O)Nc3ccc(Cl)cc3)c(C)n2)cc1 : inhibition at 10 µM at minimum 20%?
False

Evaluate COc1cccc(NC(=O)Nc2ccc(-c3ccc(OC)c(OC)c3)nc2C)c1 : inhibition at 10 µM at minimum 20%?
False

====

Tested on: T-47D
Assay: NCI one-dose SRB assay (Breast Cancer)
Format: cell-based, human
Conditions: Homo sapiens, T47D, 10 μM, read-out: Percentage growth inhibition (GI%)
Description: The structures of all the newly prepared pyridine-ureas 8a–n were submitted to the National Cancer Institute (NCI) Developmental Therapeutic Program. Eight compounds 8b, 8d, 8e, 8i, 8j and 8l–n were selected to be examined for their in vitro growth inhibitory activity. The anticancer assays were carried out according to the protocol of the Drug Evaluation Branch, NCI, Bethesda. […]
RECORDED METRIC: inhibition at 10 µM
Show the value, then the unit it is measured in.

Solved entries:
COc1ccc(-c2ccc(NC(=O)Nc3cccc(Cl)c3)c(C)n2)cc1OC
51%
COc1ccc(-c2ccc(NC(=O)Nc3ccc(Cl)c(C(F)(F)F)c3)c(C)n2)cc1
79%
COc1ccc(-c2ccc(NC(=O)Nc3cccc(C(F)(F)F)c3)c(C)n2)cc1
74%

With those in mind, consider the next molecule.
Look up inhibition at 10 µM for this molecule: COc1ccc(NC(=O)Nc2ccc(-c3ccc(OC)c(OC)c3)nc2C)cc1
40%

====

Listed here are compounds together with their documented Growth Percent.
System: SK-OV-3
Test: NCI one-dose SRB assay (Ovarian Cancer)
Type: cell-based, human
Conditions: SK-OV-3, 1.00E-5 Molar
Enter your answer as a number in %; do not include the unit.

COc1ccc(NC(=O)Nc2ccc(-c3ccc(OC)c(OC)c3)nc2C)cc1 [Compound 8n]
74.76
COc1ccc(-c2ccc(NC(=O)Nc3ccc(Cl)cc3)c(C)n2)cc1 [Compound 8d]
82.66
COc1ccc(-c2ccc(NC(=O)Nc3cccc(Cl)c3)c(C)n2)cc1OC [Compound 8j]
83.62

Look up Growth Percent for this compound: COc1ccc(-c2ccc(NC(=O)Nc3ccc(Cl)c(C(F)(F)F)c3)c(C)n2)cc1 [Compound 8e]
68.11

====

System: RXF 393
Experiment: NCI one-dose SRB assay (Renal Cancer)
Type: cell-based, human
Conditions: RXF 393, 1.00E-5 Molar
Procedure: The structures of all the newly prepared pyridine-ureas 8a–n were submitted to the National Cancer Institute (NCI) Developmental Therapeutic Program. Eight compounds 8b, 8d, 8e, 8i, 8j and 8l–n were selected to be examined for their in vitro growth inhibitory activity. The anticancer assays were carried out according to the protocol of the Drug Evaluation Branch, NCI, Bethesda. […]
Doc: threshold 90% (exclusive). Items with Growth Percent beneath it return yes; others return no.

COc1ccc(NC(=O)Nc2ccc(-c3ccc(OC)c(OC)c3)nc2C)cc1 [Compound 8n]
yes
COc1ccc(-c2ccc(NC(=O)Nc3ccc(Cl)cc3)c(C)n2)cc1 [Compound 8d]
no
COc1ccc(-c2ccc(NC(=O)Nc3cccc(C(F)(F)F)c3)c(C)n2)cc1 [Compound 8b]
yes

Turning to the following molecule.
Is Growth Percent of COc1ccc(-c2ccc(NC(=O)Nc3cccc(C(F)(F)F)c3)c(C)n2)cc1OC [Compound 8i] strictly below 90%?
yes

====

Tested on: PC-3
Assay: NCI one-dose SRB assay (Prostate)
Format: cell-based, human
Conditions: Homo sapiens; PC-3, 10 μM; read-out: Percentage growth inhibition (GI%)
Experimental: The structures of all the newly prepared pyridine-ureas 8a–n were submitted to the National Cancer Institute (NCI) Developmental Therapeutic Program. Eight compounds 8b, 8d, 8e, 8i, 8j and 8l–n were selected to be examined for their in vitro growth inhibitory activity. The anticancer assays were carried out according to the protocol of the Drug Evaluation Branch, NCI, Bethesda. […]
RECORDED METRIC: inhibition at 10 µM (%)
Enter your answer as a number in %; do not include the unit.

Solved entries:
COc1ccc(-c2ccc(NC(=O)Nc3cccc(Cl)c3)c(C)n2)cc1OC [Compound 8j]
61
COc1ccc(-c2ccc(NC(=O)Nc3ccc(Cl)cc3)c(C)n2)cc1 [Compound 8d]
24
COc1ccc(-c2ccc(NC(=O)Nc3cccc(C(F)(F)F)c3)c(C)n2)cc1 [Compound 8b]
76
COc1ccc(-c2ccc(NC(=O)Nc3ccc(Cl)c(C(F)(F)F)c3)c(C)n2)cc1 [Compound 8e]
86
COc1ccc(NC(=O)Nc2ccc(-c3ccc(OC)c(OC)c3)nc2C)cc1 [Compound 8n]
19
COc1cccc(NC(=O)Nc2ccc(-c3ccc(OC)c(OC)c3)nc2C)c1 [Compound 8m]
41

With those in mind, consider the next molecule.
Look up inhibition at 10 µM for this molecule: COc1ccc(-c2ccc(NC(=O)Nc3cccc(C(F)(F)F)c3)c(C)n2)cc1OC [Compound 8i]
73

====

Listed here are compounds together with their documented Growth Percent.
Tested on: NCI-H226
Test: NCI one-dose SRB assay (Non-Small Cell Lung Cancer)
Type: cell-based, human
Conditions: NCI-H226, 1.00E-5 Molar
Enter your answer as a number in %; do not include the unit.

Solved entries:
COc1ccc(-c2ccc(NC(=O)Nc3cccc(C(F)(F)F)c3)c(C)n2)cc1OC [Compound 8i]
72.63
COc1ccc(-c2ccc(NC(=O)Nc3ccc(Cl)c(C(F)(F)F)c3)c(C)n2)cc1 [Compound 8e]
65.24
COc1ccc(-c2ccc(NC(=O)Nc3cccc(C(F)(F)F)c3)c(C)n2)cc1 [Compound 8b]
58.09
COc1ccc(-c2ccc(NC(=O)Nc3cccc(Cl)c3)c(C)n2)cc1OC [Compound 8j]
91.65
COc1cccc(NC(=O)Nc2ccc(-c3ccc(OC)c(OC)c3)nc2C)c1 [Compound 8m]
94.44

Look up Growth Percent for this compound: COc1ccc(-c2ccc(NC(=O)Nc3ccc(Cl)cc3)c(C)n2)cc1 [Compound 8d]
97.81

Look up Growth Percent for this compound: COc1ccc(NC(=O)Nc2ccc(-c3ccc(OC)c(OC)c3)nc2C)cc1 [Compound 8n]
58.04
